Target under test: T1, Human IL-1Rrp2/IL-1R6 protein, His Tag (ACROBiosystems, IL2-H52H6) (human, UniProt Q9HB29 20-335)
T1 construct: Bought protein; the soluble protein is likely only the extracellular part; also called hIL-36R; human IL36R antigen; not shown: His tag
T1 sequence: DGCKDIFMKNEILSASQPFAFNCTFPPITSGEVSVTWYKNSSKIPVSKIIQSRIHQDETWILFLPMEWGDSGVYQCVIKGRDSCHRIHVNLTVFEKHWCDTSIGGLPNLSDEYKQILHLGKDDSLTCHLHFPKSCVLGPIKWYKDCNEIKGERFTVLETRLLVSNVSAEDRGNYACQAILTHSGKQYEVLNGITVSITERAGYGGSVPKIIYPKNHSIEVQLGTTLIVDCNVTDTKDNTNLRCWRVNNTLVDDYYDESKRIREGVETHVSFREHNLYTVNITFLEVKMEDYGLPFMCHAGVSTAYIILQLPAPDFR
Procedure text: BLI (ForteBio Octet), antibody on ProA sensor, 1:1 model
Criterion: koff strictly less than 0.0001 s⁻¹. Met: Met. Not met: Not met.

These recorded examples may help you get a feel for the data.
Binder: hz84C4-1.2 (antibody, human IgG4 S228P, kappa, V domains shown, Humanized, human IgG4 / kappa) VH: QVQLVQSGAEVKKPGASVKVSCKASGYFFTSYWMNWVRQAPGQGLEWMGYIHPYDSETRYAQKFQGRVTMTVDKSTSTVYMELSSLRSEDTAVYYCASSTTAFAYWGQGTLVTVSS VL: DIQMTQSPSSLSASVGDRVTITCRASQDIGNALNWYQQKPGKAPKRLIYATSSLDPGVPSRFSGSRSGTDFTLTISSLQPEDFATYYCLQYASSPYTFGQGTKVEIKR
Qualitative label: Not met

Binder: hz84C4-1.3 (antibody, human IgG4 S228P, kappa, V domains shown, Humanized, human IgG4 / kappa) VH: QVQLVQSGAEVKKPGASVKVSCKASGYFFTSYWMNWVRQAPGQGLEWMGMIYPYDSETRYAQKFQGRVTMTVDKSTSTVYMELSSLRSEDTAVYYCASSTTAFAYWGQGTLVTVSS VL: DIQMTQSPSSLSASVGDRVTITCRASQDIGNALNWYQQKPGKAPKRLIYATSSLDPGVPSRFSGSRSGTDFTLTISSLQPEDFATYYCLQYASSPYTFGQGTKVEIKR
Qualitative label: Met

Binder: hz84C4-2.5 (antibody, human IgG4 S228P, kappa, V domains shown, Humanized, human IgG4 / kappa) VH: QVQLVQSGAEVKKPGASVKVSCKVSGYFFTSYWMNWVNQAPGQGLEWMGMIHPYDSETRLAQKFKGRVTMTVDKSTSTVYMELSSLRSEDTAVYYCASSTTAFAYWGQGTLVTVSS VL: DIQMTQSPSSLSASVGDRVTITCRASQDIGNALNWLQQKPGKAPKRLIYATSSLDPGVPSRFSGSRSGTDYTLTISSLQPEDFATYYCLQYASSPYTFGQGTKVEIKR
Qualitative label: Not met

Bench note: check whether hz84C4-1.4 (antibody, human IgG4 S228P, kappa, V domains shown, Humanized, human IgG4 / kappa) VH: QVQLVQSGAEVKKPGASVKVSCKASGYYFTSYWMNWVRQAPGQGLEWMGMIHPYDSETRLAQKFKGRVTMTVDKSTSTVYMELSSLRSEDTAVYYCASSTTAFAYWGQGTLVTVSS VL: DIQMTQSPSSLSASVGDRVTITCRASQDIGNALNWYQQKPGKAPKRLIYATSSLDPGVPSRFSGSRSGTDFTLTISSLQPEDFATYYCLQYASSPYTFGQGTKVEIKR shows koff below 0.0001 s⁻¹
Not met

Bench note: check whether hz84C4-2.4 (antibody, human IgG4 S228P, kappa, V domains shown, Humanized, human IgG4 / kappa) VH: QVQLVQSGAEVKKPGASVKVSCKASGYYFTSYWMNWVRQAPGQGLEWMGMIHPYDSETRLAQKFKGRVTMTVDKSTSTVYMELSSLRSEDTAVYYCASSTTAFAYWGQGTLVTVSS VL: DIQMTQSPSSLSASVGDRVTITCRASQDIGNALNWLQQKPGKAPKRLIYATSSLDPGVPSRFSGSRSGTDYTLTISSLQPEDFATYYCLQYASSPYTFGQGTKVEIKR shows koff below 0.0001 s⁻¹
Not met
